- ASSAY TEXT: NCI Yeast Anticancer Drug Screen. Data for the rad50 strain (AID 155)
- APPLIED CONDITIONS: S. cerevisiae rad50 strain growth inhibition; at 100.0 µM
About 79,000 compounds went through this panel and 15% of them were active in at least one assay; those are over-represented in the sample as a whole. The source made the active and inactive calls. No stated cut-off is given here; in the data, active means growth inhibition above about 70%; inactive means the rest.
Valid outcomes are listed here; reply with one: active, inactive

(Q) Name the outcome recorded for O=C1c2ccccc2N2OC3(N4CCCC4)CCCCC3C12c1ccccc1 (configuration not stated) in the assay.
(A) active

(Q) Name the outcome recorded for `COC(=O)/C(C#N)=C\NC(=S)C(N)=S` in the assay.
(A) active

(Q) Name the outcome recorded for `O=P(C(=S)Nc1c(Cl)cccc1Cl)(c1ccccc1)c1ccccc1` in the assay.
(A) active

(Q) Name the outcome recorded for `O=S(=O)(NNc1ccccc1)c1ccccc1` in the assay.
(A) active

(Q) Name the outcome recorded for `Cc1cc(C)c2[s+]snc2c1` in the assay.
(A) inactive

(Q) Name the outcome recorded for CCN1CCC(O)(c2ccc(Oc3ccc(C)cc3)cc2)C(C(=O)c2ccc(Oc3ccc(C)cc3)cc2)C1 (configuration not stated) in the assay.
(A) active

(Q) Name the outcome recorded for O=C1CCC(Cc2ccccc2)CN1 (configuration not stated) in the assay.
(A) inactive

(Q) Name the outcome recorded for `COc1ccc2nc(CCc3ccccc3)ccc2c1` in the assay.
(A) active

(Q) Name the outcome recorded for `COc1c2c(c3c(c1CCC(=O)O)OC(C)(C)C=C3)OC(C)(C)C=C2` in the assay.
(A) active

(Q) Name the outcome recorded for CC(C)[Si]1(C(C)C)OCC2OC(n3cnc4c(N)ncnc43)C(N)C2O[Si](C(C)C)(C(C)C)O1 (configuration not stated) in the assay.
(A) active

(Q) Name the outcome recorded for `O=C(C#Cc1ccccc1)/C=C/c1ccccc1` in the assay.
(A) active

(Q) Name the outcome recorded for `Nc1cc2ccccc2cc1N` in the assay.
(A) inactive

====

- ASSAY TEXT: NCI Yeast Anticancer Drug Screen. Data for the rad14 strain (AID 159)
- APPLIED CONDITIONS: S. cerevisiae rad14 strain growth inhibition; at 33.0 µM; hits give high values
About 79,000 compounds went through this panel and 15% of them were active in at least one assay; those are over-represented in the sample as a whole.
I'd appreciate it if you could label each record using growth inhibition and these ranges: lo: < 10%; mid: ≥ 10% and < 50%; hi: ≥ 50%

(Q) Quick check: band for `Cc1ccc(Nc2n[nH]c(=S)s2)c(C)c1`
(A) mid

(Q) Quick check: band for `CC/C(=C(\c1ccccc1)c1ccc(OCC[N+](C)(C)C)cc1)c1ccccc1`
(A) hi

(Q) Quick check: band for `CN(C)CCNc1ccc2ncn3c4ccc(O)cc4c(=O)c1c23`
(A) lo

(Q) Quick check: band for `Clc1ccc(/C(=C\c2ccccc2)Cn2ccnc2)cc1`
(A) hi

(Q) Quick check: band for `CN(C)/C(=N/C(=S)Nc1ccccc1)SCc1ccccc1`
(A) mid

(Q) Quick check: band for `CCN(CC)CCNc1ccc2ncn3c4ccc(O)cc4c(=O)c1c23`
(A) lo

(Q) Quick check: band for `Cc1cccc2c(NCCCN(C)C)c3c([N+](=O)[O-])ccc(C)c3nc12`
(A) hi

(Q) Quick check: band for `CC(=O)CCC1=C(C)C(=O)C(=O)C(C)=C1O`
(A) mid

(Q) Quick check: band for `CC1=C(C)C(=O)C2=C(OCCO2)C1=O`
(A) mid

(Q) Quick check: band for `O=C(O)c1ccc2cc(Cl)c3ccccc3c2c1`
(A) mid

(Q) Quick check: band for `NCCOc1ccc(/C(=C(/Cl)c2ccccc2)c2ccccc2)cc1`
(A) hi

(Q) Quick check: band for `O=c1[nH]c2c([N+](=O)[O-])cccc2c2ccccc12`
(A) mid

(Q) Quick check: band for O=C1CC(C(O)(C(F)(F)F)C(F)(F)Cl)CCC1C(O)(C(F)(F)F)C(F)(F)Cl (stereo not drawn)
(A) hi

(Q) Quick check: band for `Cc1ccccc1NC(=O)c1c(C)oc2c1C(=O)c1ccccc1C2=O`
(A) mid

(Q) Quick check: band for COc1ccc2c3c1OC(C)C31CC(=O)CCC1CC2 (stereo not drawn)
(A) lo

(Q) Quick check: band for `N#C/C(=C\NC(=S)Nc1ccc(S(N)(=O)=O)cc1)C(=O)c1ccc2ccccc2c1`
(A) lo

(Q) Quick check: band for `Cc1cc(Cl)ccc1NC(=O)/C(Cl)=C(/Cl)C(=O)O`
(A) mid

(Q) Quick check: band for `CNC(=S)N/N=C(/C)CCC/C(C)=N/NC(=S)NC`
(A) hi

(Q) Quick check: band for `C[N+](C)([O-])CCCNc1c2ccccc2nc2cccc([N+](=O)[O-])c12`
(A) hi

(Q) Quick check: band for N#CSCC1COc2ccccc2O1 (stereo not drawn)
(A) mid

(Q) Quick check: band for `O=C1/C(=C/c2ccc(Cl)c(Cl)c2)CNC/C1=C\c1ccc(Cl)c(Cl)c1`
(A) hi

(Q) Quick check: band for `O=P(C(=S)Nc1c(Cl)cccc1Cl)(c1ccccc1)c1ccccc1`
(A) lo

(Q) Quick check: band for `CC(C)CCC[C@@H](C)[C@H]1CC[C@H]2[C@@H]3CC[C@H]4C[C@H](N)CC[C@]4(C)[C@H]3CC[C@]12C`
(A) lo

Data provenance: PubChem BioAssay (NCI)
